molecular target: p-EGFR Del19/C797S (H1975-clone #23 cells) (Homo sapiens); test: Cell p-EGFR inhibition assay, HTRF, H1975-clone#23 (DEL19/C797S) cells; details: 16 h treatment, pEGFR inhibition
Give measured pIC50 for each item. Keep answers brief.
One number for each entry, as −log10 of the molar value.

| Molecule | Numeric Result |
| --- | --- |
| COC[C@H]1CN(c2ccc3c(c2)N2C[C@@H]4CC[C@H](COc5c(c(C)nn5C)-c5cc(cc(C)n5)C(=O)/N=C/2N3)C4)CCN1C1CCN(c2c(C)cc(C3CCC(=O)NC3=O)nc2C)CC1 (some centres unmarked) [Example 141] | 9.08 |

Quick one: give me pIC50 for each item below, same order please.
1. COC[C@H]1CN(c2cc3c(cc2F)N/C2=N\C(=O)c4cc(C)nc(c4)-c4c(C)nn(C)c4OC[C@H]4CC[C@H](C4)CN23)CCN1C1CCN(c2cc(F)c([C@H]3CCC(=O)NC3=O)c(F)c2)CC1 [Example 165]
2. Cc1cc2cc(n1)-c1cnn(C)c1OC[C@H]1CCC(C1)CN1/C(=N/C2=O)Nc2ccc(N3CCN(C4CCN(c5c(F)cc(OC6CCC(=O)NC6=O)cc5F)CC4)CC3)cc21 (some centres unmarked) [Example 111]
3. COC[C@@H]1CN(c2ccc3c(c2)N2CC4CC[C@H](COc5c(cnn5C)-c5cc(cc(C)n5)C(=O)/N=C/2N3)C4)CCN1C1CCN(c2c(F)cc(NC3CCC(=O)NC3=O)cc2F)CC1 (some centres unmarked) [Example 93]
4. Cc1cc2cc(n1)-c1cnn(C)c1OC[C@H]1CC[C@H](C1)CN1/C(=N/C2=O)Nc2ccc(N3CCC(N4CC(Nc5cc(F)c([C@H]6CCC(=O)NC6=O)c(F)c5)C4)CC3)cc21 [Example 112]

[8.87, 9.00, 8.70, 9.40]

====

Assignment: determine reported DC50 for the given molecules.
target: EGFR L858R (BaF3-L858R cells) (Homo sapiens, UniProt P00533, L858R); construct: host or cells: BaF3; assay: Cell degradation of EGFR, HTRF assay, BaF3-L858R cells; format: cell-based; conditions: 16 h treatment, EGFR degradation
Give bare numbers, in nM.

Illustrative cases are given below, each with its answer.
| Molecule | Measured Target | Measured Attribute | Unit String | Numeric Result |
| --- | --- | --- | --- | --- |
| COC[C@@H]1CN(c2ccc3c(c2)N2CC4CC[C@H](COc5c(cnn5C)-c5cc(cc(C)n5)C(=O)/N=C/2N3)C4)CCN1C1CCN(c2cc(F)c(C3CCC(=O)NC3=O)nc2C)CC1 (stereo partly drawn) | EGFR L858R (BaF3-L858R cells) (Homo sapiens, UniProt P00533, L858R) | DC50 | nM | 3.78 |
| Cc1cc2cc(n1)-c1c(C)nn(C)c1OC[C@H]1CC[C@H](C1)CN1/C(=N/C2=O)Nc2ccc(N3C[C@@H](C)N(C4CCN(c5cc(F)c([C@H]6CCC(=O)NC6=O)c(F)c5)CC4)C[C@H]3C)cc21 | EGFR L858R (BaF3-L858R cells) (Homo sapiens, UniProt P00533, L858R) | DC50 | nM | 1.61 |
| Cc1cc2cc(n1)-c1cnn(C)c1OC[C@H]1CC[C@H](C1)CN1/C(=N/C2=O)Nc2ccc(N3CCN(C4CCN(c5cc(F)c([C@H]6CCC(=O)NC6=O)c(F)c5)CC4)CC3)cc21 | EGFR L858R (BaF3-L858R cells) (Homo sapiens, UniProt P00533, L858R) | DC50 | nM | 3.25 |

Look at each molecule and report its DC50.
1. Cc1cc2cc(n1)-c1c(C)nn(C)c1OC[C@H]1CC[C@H](C1)CN1/C(=N/C2=O)Nc2ccc(N3C[C@H](C)N(C4CCN(c5cc(F)c([C@H]6CCC(=O)NC6=O)c(F)c5)CC4)C[C@H]3C)cc21
2. COC[C@@H]1CN(c2ccc3c(c2)N2C[C@@H]4CC[C@H](COc5c(cnn5C)-c5cc(cc(C)n5)C(=O)/N=C/2N3)C4)CCN1C1CCN(c2cc(F)c([C@H]3CCC(=O)NC3=O)c(F)c2)CC1
3. Cc1cc2cc(n1)-c1cnn(C)c1OC[C@H]1CC[C@H](C1)CN1/C(=N/C2=O)Nc2ccc(N3CCC(N4CC(Nc5cc(F)c([C@H]6CCC(=O)NC6=O)c(F)c5)C4)CC3)cc21
4. COC[C@@H]1CN(c2cc3c(cc2C)N/C2=N\C(=O)c4cc(C)nc(c4)-c4c(C)nn(C)c4OC[C@H]4CC[C@H](C4)CN23)CCN1C1CCN(c2cc(F)c([C@H]3CCC(=O)NC3=O)c(F)c2)CC1

2.94
6.11
2.2
4.28

Kindly give each listed record's DC50.
1. COC[C@H]1CN(c2ccc3c(c2)N2C[C@@H]4CC[C@H](COc5c(c(C)nn5C)-c5cc(cc(C)n5)C(=O)/N=C/2N3)C4)CCN1C1CCN(c2c(C)cc(C3CCC(=O)NC3=O)nc2C)CC1 (stereo partly drawn)
2. COC[C@@H]1CN(c2ccc3c(c2)N2CC4CC[C@H](COc5c(c(C(F)(F)F)nn5C)-c5cc(cc(C)n5)C(=O)/N=C/2N3)C4)CCN1C1CCN(c2cc(F)c([C@H]3CCC(=O)NC3=O)c(F)c2)CC1

[1.13, 3.4]

====

Target: p-EGFR Del19/C797S (H1975-clone #23 cells) (Homo sapiens)
Experiment: Cell p-EGFR inhibition assay, HTRF, H1975-clone#23 (DEL19/C797S) cells
Conditions: 16 h treatment, pEGFR inhibition
Method: The EGFR over-expressed cells then underwent knockout, in which the EGFR targeting sgRNA was designed to only target the endogenous EGFR copies and preserve the exogenous EGFR copies. Followed by the knockout, the edited H1975 cells were seeded in 96 well plates at the concentration of 1 cell/well, cultured for about 2 weeks to allow single clones formation. […] High control=Cell group with added DMSO and without compound, indicating microplate readings without p-EGFR inhibited. […]
Measured Attribute: pIC50
One number for each entry, as −log10 of the molar value.

| Compound | pIC50 |
| --- | --- |
| Cc1cc2cc(n1)-c1c(C)nn(C)c1OC[C@H]1CC[C@H](C1)CN1/C(=N/C2=O)Nc2ccc(N3C[C@H](C)N(C4CCN(c5cc(F)c([C@H]6CCC(=O)NC6=O)c(F)c5)CC4)C[C@H]3C)cc21 [Example 191] | 9.11 |

Okay, here is my list. What is pIC50 for each of these?
1. COC[C@H]1CN(c2ccc3c(c2)N2C[C@@H]4CC[C@H](COc5c(c(C)nn5C)-c5cc(cc(C)n5)C(=O)/N=C/2N3)C4)CCN1C1CCN(c2ccc(OC3CCC(=O)NC3=O)cc2C)CC1 (some centres unmarked) [Example 140]
2. Cc1cc2cc(n1)-c1c(C)nn(C)c1OC[C@H]1CC[C@H](C1)CN1/C(=N/C2=O)Nc2ccc(N3CCC(CN(C)C4CCN(c5cc(F)c([C@H]6CCC(=O)NC6=O)c(F)c5)CC4)CC3)cc21 [Example 138]
3. Cc1cc2cc(n1)-c1cnn(C)c1OC[C@H]1CCC(C1)CN1/C(=N/C2=O)Nc2ccc(N3CCC4(CC3)CN(C3CCN(c5cc(F)c([C@H]6CCC(=O)NC6=O)c(F)c5)CC3)C4)cc21 [Example 120]
4. Cc1cc2cc(n1)-c1cnn(C)c1OC[C@H]1CC[C@H](C1)CN1/C(=N/C2=O)Nc2ccc(N3CCN(C4CCN(c5ccc(OC6CCC(=O)NC6=O)nc5C)CC4)CC3)cc21 (some centres unmarked) [Example 137]

1. 8.99
2. 8.86
3. 8.96
4. 9.28

====

target: p-EGFR L858R (BaF3-L858R cells) (Homo sapiens, UniProt P00533, L858R); construct: host or cells: BaF3; test: Cell p-EGFR inhibition assay, HTRF, BaF3-L858R cells; type: cell-based; details: 16 h treatment, maximum percentage of pEGFR inhibition
Measured Attribute: Imax (%)
Answers are plain numbers, in %.

Some compounds with known Imax (%) results, for comparison:
| Compound | Measured Target | Numeric Result |
| --- | --- | --- |
| COC[C@H]1CN(c2ccc3c(c2)N2CC4CC[C@H](COc5c(c(C(F)(F)F)nn5C)-c5cc(cc(C)n5)C(=O)/N=C/2N3)C4)CCN1C1CCN(c2cc(F)c([C@H]3CCC(=O)NC3=O)c(F)c2)CC1 | p-EGFR L858R (BaF3-L858R cells) (Homo sapiens, UniProt P00533, L858R) | 99.3 |
| Cc1cc2cc(n1)-c1cnn(C)c1OC[C@H]1CCC(C1)CN1/C(=N/C2=O)Nc2ccc(N3CCN(C4CCN(c5cc(F)c([C@H]6CCC(=O)NC6=O)c(F)c5)CC4)C[C@@H]3CO)cc21 | p-EGFR L858R (BaF3-L858R cells) (Homo sapiens, UniProt P00533, L858R) | 99.6 |
| Cc1cc2cc(n1)-c1cnn(C)c1OC[C@H]1CCC(C1)CN1/C(=N/C2=O)Nc2ccc(N3CCN(C4CCN(c5ccc(OC6CCC(=O)NC6=O)cc5F)CC4)CC3)cc21 (some centres unmarked) | p-EGFR L858R (BaF3-L858R cells) (Homo sapiens, UniProt P00533, L858R) | 108.3 |
| Cc1cc2cc(n1)-c1c(C)nn(C)c1OC[C@H]1CC[C@H](C1)CN1/C(=N/C2=O)Nc2ccc(N3CCN(CC4CN(c5cc(F)c([C@H]6CCC(=O)NC6=O)c(F)c5)C4)[C@@H](CF)C3)cc21 | p-EGFR L858R (BaF3-L858R cells) (Homo sapiens, UniProt P00533, L858R) | 89.17 |

Please examine the following record next.
Please list Imax (%) recorded for the compound `COC[C@H]1CN(c2ccc3c(c2)N2C[C@@H]4CC[C@H](COc5c(cnn5C)-c5cc(cc(C)n5)C(=O)/N=C/2N3)C4)CCN1C1CN(C2CCN(c3cc(F)c([C@H]4CCC(=O)NC4=O)c(F)c3)CC2)C1`
91.5

These entries and their values trace back to patent US20240425523A1.
